What Cardiac selectivity ratio vs rbskMF pCa 6 IC50 was measured for each of the following?
Test system: rabbit skeletal myosin
ASSAY_METHOD_TEXT: Myosin inhibition assay (rbskMF pCa 6 IC50)
Assay type: biochemical
MEASUREMENT_SETUP: cardiac vs rabbit skeletal myofibrils
Give the figure by itself; no unit, no explanation.

// query Tell me its Cardiac selectivity ratio vs rbskMF pCa 6 IC50 given O=c1[nH]c2c(c(=O)n1C1CCOCC1)CC(F)(F)[C@H](c1cccc(F)c1)N2 [Compound C-1, reference compound] as the entry.
// result 5.48

// query Tell me its Cardiac selectivity ratio vs rbskMF pCa 6 IC50 given O=c1[nH]c2c(c(=O)n1C1CCOCC1)C[C@@H](F)[C@H](c1cccc(F)c1)N2 as the entry.
// result 10.71

// query Tell me its Cardiac selectivity ratio vs rbskMF pCa 6 IC50 given Cc1ccc(F)c([C@@H]2Nc3[nH]c(=O)n(C4CCOCC4)c(=O)c3C[C@@H]2F)c1 as the entry.
// result 4.51

// query Tell me its Cardiac selectivity ratio vs rbskMF pCa 6 IC50 given O=c1[nH]c2c(c(=O)n1C1CCOCC1)C[C@H](F)[C@H](c1cccc(F)c1)N2 as the entry.
// result 7.38

---

TARGET_SYSTEM: bovine cardiac myosin (Bos taurus (Bovine), UniProt Q9BE39)
Sequence (Q9BE39 whole entry): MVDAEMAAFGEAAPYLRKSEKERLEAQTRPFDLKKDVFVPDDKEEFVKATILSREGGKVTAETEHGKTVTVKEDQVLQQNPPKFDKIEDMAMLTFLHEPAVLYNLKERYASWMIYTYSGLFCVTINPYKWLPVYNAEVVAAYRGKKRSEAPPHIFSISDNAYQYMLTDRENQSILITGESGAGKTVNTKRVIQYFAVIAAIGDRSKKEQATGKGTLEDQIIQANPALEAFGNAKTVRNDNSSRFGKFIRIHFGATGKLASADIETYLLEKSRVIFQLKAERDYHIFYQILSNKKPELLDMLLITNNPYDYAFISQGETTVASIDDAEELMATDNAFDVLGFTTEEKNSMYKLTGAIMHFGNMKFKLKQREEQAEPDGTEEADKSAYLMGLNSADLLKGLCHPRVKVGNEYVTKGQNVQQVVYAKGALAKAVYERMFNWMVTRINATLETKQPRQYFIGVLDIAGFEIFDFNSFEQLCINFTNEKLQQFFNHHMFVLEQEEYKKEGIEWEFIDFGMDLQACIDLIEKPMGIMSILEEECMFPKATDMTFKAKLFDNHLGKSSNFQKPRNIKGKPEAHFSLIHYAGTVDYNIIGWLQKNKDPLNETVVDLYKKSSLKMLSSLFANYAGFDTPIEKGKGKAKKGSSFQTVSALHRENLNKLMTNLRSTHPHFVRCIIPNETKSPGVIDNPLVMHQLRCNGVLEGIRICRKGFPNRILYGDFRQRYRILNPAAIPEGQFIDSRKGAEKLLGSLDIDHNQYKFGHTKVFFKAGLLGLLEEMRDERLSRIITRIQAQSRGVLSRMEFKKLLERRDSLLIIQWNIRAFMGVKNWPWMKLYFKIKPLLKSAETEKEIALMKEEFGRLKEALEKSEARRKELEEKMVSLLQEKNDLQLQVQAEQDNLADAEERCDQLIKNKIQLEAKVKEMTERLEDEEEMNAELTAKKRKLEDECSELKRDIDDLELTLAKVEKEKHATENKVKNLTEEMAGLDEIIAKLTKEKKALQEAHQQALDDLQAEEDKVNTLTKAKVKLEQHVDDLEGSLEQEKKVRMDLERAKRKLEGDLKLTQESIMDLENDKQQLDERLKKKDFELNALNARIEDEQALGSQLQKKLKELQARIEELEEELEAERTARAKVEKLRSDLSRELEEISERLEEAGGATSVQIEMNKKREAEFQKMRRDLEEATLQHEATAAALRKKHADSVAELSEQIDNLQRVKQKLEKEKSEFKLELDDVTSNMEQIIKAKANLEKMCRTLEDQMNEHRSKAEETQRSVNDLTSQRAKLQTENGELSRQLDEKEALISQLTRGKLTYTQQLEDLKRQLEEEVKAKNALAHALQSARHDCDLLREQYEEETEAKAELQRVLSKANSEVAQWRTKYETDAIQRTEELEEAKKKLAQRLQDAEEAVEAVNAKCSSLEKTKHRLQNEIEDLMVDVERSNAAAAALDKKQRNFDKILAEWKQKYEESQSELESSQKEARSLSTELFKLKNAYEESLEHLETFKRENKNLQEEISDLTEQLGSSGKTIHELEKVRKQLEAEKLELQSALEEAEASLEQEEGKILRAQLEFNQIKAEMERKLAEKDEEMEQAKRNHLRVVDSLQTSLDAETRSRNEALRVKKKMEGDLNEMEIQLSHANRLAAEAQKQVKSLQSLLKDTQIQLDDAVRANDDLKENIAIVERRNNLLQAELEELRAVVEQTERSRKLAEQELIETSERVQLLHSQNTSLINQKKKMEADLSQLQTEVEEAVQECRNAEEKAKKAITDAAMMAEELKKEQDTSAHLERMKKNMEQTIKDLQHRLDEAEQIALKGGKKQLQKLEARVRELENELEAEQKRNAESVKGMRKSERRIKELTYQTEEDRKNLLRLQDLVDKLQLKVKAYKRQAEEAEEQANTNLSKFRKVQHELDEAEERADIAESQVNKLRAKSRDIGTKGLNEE
Sequence (P85100 whole entry partner): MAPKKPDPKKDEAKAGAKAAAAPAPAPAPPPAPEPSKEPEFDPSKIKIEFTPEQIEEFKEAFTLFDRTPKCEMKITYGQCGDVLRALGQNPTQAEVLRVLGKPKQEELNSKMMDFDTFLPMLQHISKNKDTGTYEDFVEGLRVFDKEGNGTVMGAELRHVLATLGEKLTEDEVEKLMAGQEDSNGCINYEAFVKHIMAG
Sequence (Q3SZE5 whole entry partner): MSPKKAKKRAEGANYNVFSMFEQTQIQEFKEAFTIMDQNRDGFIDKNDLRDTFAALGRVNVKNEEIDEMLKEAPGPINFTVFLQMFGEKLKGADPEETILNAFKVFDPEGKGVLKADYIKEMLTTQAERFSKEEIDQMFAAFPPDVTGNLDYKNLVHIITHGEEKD
ASSAY_METHOD_TEXT: Myosin inhibition assay (bcMF serum pCa 6 IC50), 10% human serum
Format: biochemical
MEASUREMENT_SETUP: in the presence of 10% human serum
OBSERVATION_TYPE: IC50 (µM)
API: value field is a number in µM; no unit string.

// query Tell me its IC50 given O=c1[nH]c2c(c(=O)n1C1CCOCC1)C[C@H](F)[C@H](c1cccc(F)c1)N2 as the entry.
// result 3.7

// query Tell me its IC50 given O=c1[nH]c2c(c(=O)n1C1CCOCC1)CC(F)(F)[C@H](c1cccc(F)c1)N2 [Compound C-1, reference compound] as the entry.
// result 3.49

// query Tell me its IC50 given Cc1ccc(F)c([C@@H]2Nc3[nH]c(=O)n(C4CCOCC4)c(=O)c3C[C@@H]2F)c1 as the entry.
// result 1.56

// query Tell me its IC50 given O=c1[nH]c2c(c(=O)n1C1CCOCC1)C[C@@H](F)[C@H](c1cccc(F)c1)N2 as the entry.
// result 3.11

---

ASSAY_METHOD_TEXT: physchem
MEASUREMENT_SETUP: pH 7.4, aqueous buffer, kinetic from dmso stock
OBSERVATION_TYPE: solubility kinetic at 1.5 h

// query Tell me its solubility kinetic at 1.5 h given COC(=O)[C@H]1[C@H]2C[C@@H]3c4[nH]c5cc(OC)ccc5c4CCN3C[C@H]2C[C@@H](OC(=O)c2cc(OC)c(OC)c(OC)c2)[C@@H]1OC [Reserpine] as the entry.
// result < 15 µM

---

What pIC50 was measured for each of the following?
TARGET_SYSTEM: bovine cardiac myosin (Bos taurus (Bovine))
ASSAY_METHOD_TEXT: Myosin inhibition assay (bcMF pCa 6 IC50)
Type: biochemical
MEASUREMENT_SETUP: bovine cardiac myofibrils, calcium giving 50% activation; read-out: bcMF pCa 6 IC50
Remember, pIC50 is on a log scale: it is -log10 of the molar concentration.

// query Tell me its pIC50 given O=c1[nH]c2c(c(=O)n1C1CCOCC1)C[C@@H](F)[C@H](c1cccc(F)c1)N2 as the entry.
// result 5.67

// query Tell me its pIC50 given O=c1[nH]c2c(c(=O)n1C1CCOCC1)CC(F)(F)[C@H](c1cccc(F)c1)N2 [Compound C-1, reference compound] as the entry.
// result 5.80

// query Tell me its pIC50 given Cc1ccc(F)c([C@@H]2Nc3[nH]c(=O)n(C4CCOCC4)c(=O)c3C[C@@H]2F)c1 as the entry.
// result 5.95

// query Tell me its pIC50 given O=c1[nH]c2c(c(=O)n1C1CCOCC1)C[C@H](F)[C@H](c1cccc(F)c1)N2 as the entry.
// result 5.52

---

TARGET_SYSTEM: bovine cardiac myosin (Bos taurus (Bovine), UniProt Q9BE39)
ASSAY_METHOD_TEXT: Myosin inhibition assay (bcMF pCa 6 IC50)
Type: biochemical
MEASUREMENT_SETUP: bovine cardiac myofibrils, calcium giving 50% activation; read-out: bcMF pCa_6 IC50 MEAN
OBSERVATION_TYPE: IC50 (nM)
API: value field is a number in nM; no unit string.

// query // output IC50; input COc1ccc(F)c([C@@H]2Nc3[nH]c(=O)n(C4CCOCC4)c(=O)c3C[C@@H]2F)c1 ; system bovine cardiac myosin (Bos taurus (Bovine), UniProt Q9BE39)
// result 1020

// query // output IC50; input Cc1ccc(F)c([C@H]2Nc3[nH]c(=O)n(C4CCOCC4)c(=O)c3C[C@@H]2F)c1 ; system bovine cardiac myosin (Bos taurus (Bovine), UniProt Q9BE39)
// result 26400

// query // output IC50; input Cc1ccc(F)c([C@@H]2Nc3[nH]c(=O)n(C4CCOCC4)c(=O)c3C[C@@H]2F)c1 ; system bovine cardiac myosin (Bos taurus (Bovine), UniProt Q9BE39)
// result 1110

// query // output IC50; input O=c1[nH]c2c(c(=O)n1C1CCOCC1)C[C@H](F)[C@H](c1ccccc1F)N2 ; system bovine cardiac myosin (Bos taurus (Bovine), UniProt Q9BE39)
// result 5590

// query // output IC50; input Cc1ccc(F)c([C@@H]2Nc3[nH]c(=O)n(C4CCOCC4)c(=O)c3C[C@H]2F)c1 ; system bovine cardiac myosin (Bos taurus (Bovine), UniProt Q9BE39)
// result 370

// query // output IC50; input O=c1[nH]c2c(c(=O)n1C1CCOCC1)C[C@@H](F)[C@@H](c1cccc(F)c1)N2 ; system bovine cardiac myosin (Bos taurus (Bovine), UniProt Q9BE39)
// result 23200

// query // output IC50; input O=c1[nH]c2c(c(=O)n1C1CCOCC1)C[C@@H](F)[C@H](c1ccccc1F)N2 ; system bovine cardiac myosin (Bos taurus (Bovine), UniProt Q9BE39)
// result 1460

// query // output IC50; input Cc1ccc(F)c([C@H]2Nc3[nH]c(=O)n(C4CCOCC4)c(=O)c3C[C@H]2F)c1 ; system bovine cardiac myosin (Bos taurus (Bovine), UniProt Q9BE39)
// result 20800

// query // output IC50; input COc1ccc(F)c([C@@H]2Nc3[nH]c(=O)n(C4CCOCC4)c(=O)c3C[C@H]2F)c1 ; system bovine cardiac myosin (Bos taurus (Bovine), UniProt Q9BE39)
// result 490

// query // output IC50; input C#Cc1ccc(F)c([C@@H]2Nc3[nH]c(=O)n(C4CCOCC4)c(=O)c3C[C@@H]2F)c1 ; system bovine cardiac myosin (Bos taurus (Bovine), UniProt Q9BE39)
// result 540

// query // output IC50; input O=c1[nH]c2c(c(=O)n1C1CCOCC1)C[C@H](F)[C@H](c1cccc(F)c1)N2 ; system bovine cardiac myosin (Bos taurus (Bovine), UniProt Q9BE39)
// result 3030

// query // output IC50; input O=c1[nH]c2c(c(=O)n1C1CCOCC1)C[C@H](F)[C@H](c1cc(CO)ccc1F)N2 ; system bovine cardiac myosin (Bos taurus (Bovine), UniProt Q9BE39)
// result 780

// query // output IC50; input O=c1[nH]c2c(c(=O)n1C1CCOCC1)C[C@@H](F)[C@H](c1cccc(F)c1)N2 ; system bovine cardiac myosin (Bos taurus (Bovine), UniProt Q9BE39)
// result 2130
